These entries and their values trace back to PubChem BioAssay (NCI).

- Tested on: NCI-H322M lung
- method.description: NCI-60 one-dose screen, 48 h (100 = growth as untreated, 0 = no growth, -100 = all killed)
- measurement.conditions: 10 µM unless noted
- Description: Growth inhibition of the NCI-H322M human Non-Small Cell Lung tumor cell line is measured as a screen for anti-cancer activity. Cells are grown in 96 well plates and exposed to the test compound for 48 hours. Compounds are tested at a single concentration, which is 10^-5 M for most compounds. The reported endpoint is percent growth (GI% or GIPRCNT), where numbers from 0 - 100% represent growth inhibition, and numbers from -100% - 0 represent cell death. […]
About 83,000 compounds went through this panel and 20% of them were active in at least one assay; those are over-represented in the sample as a whole.
test.readout: growth (%)
Reply with just the number (in %).

Solved entries (count: 3):
{"molecule": "CCCOc1cc2ccccc2cc1C(=O)Nc1nc(NC)c2c(ccc3nccc32)[nH]1", "subject.of.test": "NCI-H322M lung", "growth / %": -65.9}
{"molecule": "CN(C)CCN1C(=O)c2cccc3c(N)ccc(c23)C1=O", "subject.of.test": "NCI-H322M lung", "growth / %": 58.5}
{"molecule": "OCCNc1nccc(N2CCN(c3ccnc4cc(Cl)ccc34)CC2)n1", "subject.of.test": "NCI-H322M lung", "growth / %": 84.2}

Task item: Write down growth measured for item CCOC(=O)c1sc2nc(-c3cccc(O)c3)nc(N3CCOCC3)c2c1C
Reply: 70.7

Task item: Write down growth measured for item COc1cc2nc(N3CCCC3)nc(NCCc3ccccc3)c2cc1OC
Reply: 75.2

Task item: Write down growth measured for item O=C1c2c(O)cc(O)cc2-c2c(-c3ccc(O)cc3)oc3cc(O)cc1c23
Reply: 65.2

Task item: Write down growth measured for item N#CCCN=Nc1c(O)[nH]c2ccc([N+](=O)[O-])cc12
Reply: 98

Task item: Write down growth measured for item Cc1ccc(NC(=O)/C=C/c2ccccc2)c(C(N)=O)c1
Reply: 63.1

---

- System: SR leukemia
- method.description: NCI-60 one-dose screen, 48 h
- measurement.conditions: 10 µM unless noted
The panel holds about 83,000 compounds, 20% with a hit somewhere; the sample as a whole holds those more often. Active and inactive are the calls of the source. Rule for the calls: active = growth percent below 10; inactive = the rest.
Just give me one of these, please: y (active), n (inactive)

These recorded examples may help you get a feel for the data.
{"compound": "Cc1[nH]c(-c2cc(N)ccc2Cl)c2c1C(=O)CCCC2", "cat": "n"}
{"compound": "COc1ccc(/C=C/c2nc(-c3n[nH]c(=O)n3-c3ccccc3)c3ccccc3n2)cc1", "cat": "n"}
{"compound": "NC(=NCCCC1(c2ccccc2)CCCC1)Nc1ccc(Cl)cc1", "cat": "y"}
{"compound": "O=C(Cn1cccc(Nc2ccccc2)c1=O)Nc1ccccc1", "cat": "n"}
{"compound": "Cc1[nH]c(-c2ccc3cc[nH]c3c2)c2c1C(=O)CCCC2", "cat": "n"}
{"compound": "N#Cc1cnn(-c2nc3c(Cl)cccc3s2)c1N", "cat": "n"}
{"compound": "CC1C(/C=N/Nc2ccccc2)C(C#N)(C#N)C1(C#N)C#N (stereo not given)", "cat": "n"}
{"compound": "C#Cc1cccc(NC(=O)c2ccccc2NC(=O)C=C)c1", "cat": "n"}
{"compound": "O=C(COc1ccc(/C=C2\\COc3ccccc3C2=O)cc1)Nc1nccs1", "cat": "y"}
{"compound": "COc1ccc(O)c(N=Nc2nccs2)c1", "cat": "n"}

Task item: Just curious, what result did N#Cc1nnn(-c2ccc(S(N)(=O)=O)cc2)c1NC(=O)CCl get here?
Reply: n

Task item: Just curious, what result did Cc1ccc(NC(=O)C2CCC(CN3CCN(C)CC3)CC2)cc1Nc1nccc(-c2cccnc2)n1 (stereo not given) get here?
Reply: n

---

- Tested on: NCI-H460 lung
- method.description: NCI-60 one-dose screen, 48 h
- measurement.conditions: 10 µM unless noted
The panel holds about 83,000 compounds, 20% with a hit somewhere; the sample as a whole holds those more often. Activity calls are given as the source filed them. Rule for the calls: active = growth percent below 10; inactive = the rest.
Just give me one of these, please: active, inactive

{"molecule": "O=c1c2c3c(sc2nc(N/N=C/c2cn(-c4ccccc4)nc2-c2ccc(Cl)cc2)n1Cc1ccccc1)CCCC3", "cat": "inactive"}
{"molecule": "CCOc1cc2c(cc1OCC)C(c1cc(OC)c(O)cc1Cl)NCC2 (centres undefined)", "cat": "inactive"}
{"molecule": "FC(F)(F)c1nc2c(NCc3ccc(-c4ccccc4)cc3)cccc2[nH]1", "cat": "inactive"}
{"molecule": "O=C1NC(=S)NC(=O)C1CC(=O)n1c(-c2ccccc2)nc2ccccc21", "cat": "inactive"}
{"molecule": "CON1C(=O)CC[C@]2(C)[C@H]3CC[C@@H]4C([C@@]5(C)CCC(=O)O5)CC[C@@]4(C)[C@]3(C)CC[C@H]2C1(C)C (some centres undefined)", "cat": "inactive"}

Task item: Just curious, what result did CCN1CCN(c2nc(NCCNc3ccnc4cc(Cl)ccc34)c3ccccc3n2)CC1 get here?
Reply: active

Task item: Just curious, what result did O=C1CSC(=S)N1CCc1ccc(O)cc1 get here?
Reply: inactive

Task item: Just curious, what result did NC(N)=N/N=C(/c1ccccc1)c1ccc(F)cc1 get here?
Reply: active

Task item: Just curious, what result did COc1ccc(O)c(N=Nc2nccs2)c1 get here?
Reply: inactive

Task item: Just curious, what result did Cn1c(=O)c2c(nc3n(-c4ccc(Cl)cc4Cl)c(Sc4nc(-c5ccccc5)c(C#N)c(=O)[nH]4)cn23)n(C)c1=O get here?
Reply: inactive

Task item: Just curious, what result did COc1ccc(SC2c3ccc(C)cc3Oc3nc(N)c(C#N)c(N)c32)cc1 (centres undefined) get here?
Reply: active

Task item: Just curious, what result did Cn1cc(C(=O)c2nc(-c3c[nH]c4ccccc34)no2)c2ccccc21 get here?
Reply: inactive

Task item: Just curious, what result did CN1CCN(c2ccc(Nc3c4ccccc4nc4ccccc34)cc2)CC1 get here?
Reply: inactive

Task item: Just curious, what result did CCN(CC)S(=O)(=O)c1ccc(OC)c(NC(=O)c2[nH]c(C)c3c2CCCCC3=O)c1 get here?
Reply: inactive

Task item: Just curious, what result did CC(C)(C)c1cc(C(C)(C)C)cc(S(=O)(=O)Nc2cc3ccccc3cc2C(=O)NCCN)c1 get here?
Reply: active

Task item: Just curious, what result did CCOC(=O)c1c(C)oc2ncnc(N3CCN(C(=O)COc4ccc(SC)cc4)CC3)c12 get here?
Reply: inactive

Task item: Just curious, what result did CCC#CC[C@H](O)C/C=C1/C(=O)C=C[C@@H]1C/C=C\CCCC(=O)OC get here?
Reply: active

Task item: Just curious, what result did O=Nc1c(O)c(Cl)cc2ccccc12 get here?
Reply: inactive

Task item: Just curious, what result did Cc1cc(C)nc(SC2=C(Nc3cc(Cl)ccc3O)C(=O)N(Cc3ccccc3)C2=O)n1 get here?
Reply: inactive

Task item: Just curious, what result did COc1ccc(N=Nc2nccs2)c(O)c1 get here?
Reply: inactive

Task item: Just curious, what result did CC/C=C\C/C=C\C[C@H]1C/C=C2/C(=O)C=C[C@@H]2C/C=C\CCC(=O)O1 get here?
Reply: active

Task item: Just curious, what result did OCCN1CCN(c2nc(Nc3ccc(-c4nc5ccccc5[nH]4)cc3)c3cn[nH]c3n2)CC1 get here?
Reply: active

Task item: Just curious, what result did COc1cccc(C2=NN3C(C2)c2cc(Br)cc(OC)c2OC32CCN(Cc3ccccc3)CC2)c1 (centres undefined) get here?
Reply: inactive

Task item: Just curious, what result did COc1ccc2c(c1)O/C(=C\c1cccc(OCC(=O)Nc3nc4c(s3)CCCC4)c1)C2=O get here?
Reply: inactive

---

growth overview
- Tested on: EKVX NSCLC
- method.description: NCI-60 one-dose screen, 48 h (100 = growth as untreated, 0 = no growth, -100 = all killed)
- measurement.conditions: 10 µM unless noted
The panel holds about 83,000 compounds, 20% with a hit somewhere; the sample as a whole holds those more often. Calls of active or inactive are those of the source. Rule for the calls: active = growth percent below 10; inactive = the rest.

Solved entries (count: 3):
{"molecule": "COc1ccc(C2Nc3c(c(C(C)(C)C)nn3-c3ccccc3)C(=O)CS2)cc1 (stereo not given)", "growth": "93.9% (inactive)"}
{"molecule": "CC(C)CSc1nc(N)nc2c1ncn2C1OC(CO)C(O)C1O (stereo not given)", "growth": "93.2% (inactive)"}
{"molecule": "C=C(C)C(=O)Nc1ccc(NC(C)C)cc1", "growth": "115% (inactive)"}

Task item: Write down growth measured for item Cc1cc(C)nc(SC2=C(Nc3cccc(Cl)c3C)C(=O)N(Cc3ccccc3)C2=O)n1
Reply: 47.2% [30 µM] (inactive)

Task item: Write down growth measured for item Cc1cc(C)nc(SC2=C(Nc3cc(Cl)ccc3O)C(=O)N(Cc3ccccc3)C2=O)n1
Reply: 83.9% [30 µM] (inactive)
